- target-or-test-system: BTB/POZ domain-containing protein KCTD12 (Homo sapiens, UniProt Q96CX2)
- Sequence (Q96CX2 whole entry, the tested form may be a part): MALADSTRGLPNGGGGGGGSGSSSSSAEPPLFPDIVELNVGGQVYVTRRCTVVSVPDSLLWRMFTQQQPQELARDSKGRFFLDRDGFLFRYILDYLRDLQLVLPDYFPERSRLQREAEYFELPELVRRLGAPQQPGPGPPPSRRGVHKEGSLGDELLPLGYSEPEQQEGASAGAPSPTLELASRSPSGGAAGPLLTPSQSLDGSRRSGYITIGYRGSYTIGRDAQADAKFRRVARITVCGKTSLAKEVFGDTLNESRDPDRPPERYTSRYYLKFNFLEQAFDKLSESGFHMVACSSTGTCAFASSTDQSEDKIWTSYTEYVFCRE
- test-details: Binding affinity to recombinant human 6X His-tagged KCTD12 T1 domain (27 to 131 residues) expressed in Escherichia coli BL21 DE3 cells preincubated for 1 hr followed by probing with HRP-conjugated 6X-His tag antibody for 0.5 hrs by SPOT peptide microarray analysis
- test-context: read-out: EC50
Reported pEC50 values for the following substances.
// pEC50 is dimensionless: -log10 of concentration (M)

{"columns": ["substance", "target-or-test-system", "pEC50"],
 "data": [
  ["H-SLQLPILHHAYLPSYHYY-OH", "BTB/POZ domain-containing protein KCTD12 (Homo sapiens, UniProt Q96CX2)", 6.68]
]}

Data request: Would you mind telling me what pEC50 value was observed for H-SLQLPILHHAYLPYYHYY-OH ?
Data returned: 5.87
